molecular target: PDGFRβ (Homo sapiens (Human)); test: PDGFRβ Cellular Assay (FLIPR, PDGF-induced intracellular calcium in NHDF-Ad)
Sequence (P09619 33-1106): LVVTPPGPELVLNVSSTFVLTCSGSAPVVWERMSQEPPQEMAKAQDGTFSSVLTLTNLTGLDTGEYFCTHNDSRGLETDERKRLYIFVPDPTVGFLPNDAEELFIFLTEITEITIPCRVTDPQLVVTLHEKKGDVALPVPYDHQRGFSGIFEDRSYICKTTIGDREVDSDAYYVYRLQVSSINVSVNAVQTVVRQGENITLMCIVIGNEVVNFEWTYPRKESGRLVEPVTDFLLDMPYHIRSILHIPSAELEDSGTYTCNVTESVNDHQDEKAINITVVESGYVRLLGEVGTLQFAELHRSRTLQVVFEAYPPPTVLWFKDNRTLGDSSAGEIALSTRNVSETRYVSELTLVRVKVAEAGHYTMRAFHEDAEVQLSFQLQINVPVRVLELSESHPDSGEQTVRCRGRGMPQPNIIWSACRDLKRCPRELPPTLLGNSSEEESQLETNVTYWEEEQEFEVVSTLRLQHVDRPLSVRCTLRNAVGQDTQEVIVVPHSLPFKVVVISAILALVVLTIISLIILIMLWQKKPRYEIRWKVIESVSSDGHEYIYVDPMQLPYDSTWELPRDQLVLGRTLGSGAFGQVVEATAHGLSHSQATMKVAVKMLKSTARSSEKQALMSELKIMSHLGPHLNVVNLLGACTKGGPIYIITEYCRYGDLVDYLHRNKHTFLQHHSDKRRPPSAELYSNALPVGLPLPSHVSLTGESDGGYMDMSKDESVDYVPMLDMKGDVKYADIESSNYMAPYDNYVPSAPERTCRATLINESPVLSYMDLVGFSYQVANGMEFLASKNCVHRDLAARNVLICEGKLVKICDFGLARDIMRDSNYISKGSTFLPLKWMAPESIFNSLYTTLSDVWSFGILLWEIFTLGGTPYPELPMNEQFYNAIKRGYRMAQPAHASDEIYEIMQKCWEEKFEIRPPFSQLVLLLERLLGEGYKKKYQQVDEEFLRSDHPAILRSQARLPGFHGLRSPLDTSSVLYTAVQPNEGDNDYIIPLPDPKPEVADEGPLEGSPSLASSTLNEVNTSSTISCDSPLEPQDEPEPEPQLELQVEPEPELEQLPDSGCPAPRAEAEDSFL
observable: IC50
Give your result as the value with the unit written after it.

Ask | Sample COP(=O)(OC)c1cnc(N)c(-c2ccc(NC(=O)Nc3cccc(C(F)(F)F)c3)cc2)c1 — what was its IC50?
Reply | 66 nM

---

target: recombinant human GST-PKR (Homo sapiens (Human), UniProt P19525); experiment: PKR KinaseGlo Assay; settings: 6.6 uM ATP; read-out: PKR KINASEGLO Enzyme Assay IC50
Sequence (P19525 whole entry): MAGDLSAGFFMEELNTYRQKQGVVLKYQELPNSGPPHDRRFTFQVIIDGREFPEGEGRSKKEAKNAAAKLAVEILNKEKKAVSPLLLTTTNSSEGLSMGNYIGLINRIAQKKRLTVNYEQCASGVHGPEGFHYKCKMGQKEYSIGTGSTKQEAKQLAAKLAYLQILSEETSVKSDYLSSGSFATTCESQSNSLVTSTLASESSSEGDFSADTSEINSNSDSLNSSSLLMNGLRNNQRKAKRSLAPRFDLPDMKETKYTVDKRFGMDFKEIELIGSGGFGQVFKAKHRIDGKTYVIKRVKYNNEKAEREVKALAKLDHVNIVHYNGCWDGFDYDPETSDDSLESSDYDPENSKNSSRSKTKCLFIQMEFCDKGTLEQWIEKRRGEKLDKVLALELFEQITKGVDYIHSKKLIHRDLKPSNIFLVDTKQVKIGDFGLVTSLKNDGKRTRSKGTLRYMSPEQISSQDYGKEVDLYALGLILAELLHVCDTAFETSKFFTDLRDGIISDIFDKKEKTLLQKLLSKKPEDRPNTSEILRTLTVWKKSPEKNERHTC
Recorded measurements of IC50, one per entry
Give your result as the value with the unit written after it.

Take a look at these entries with their results.
CS(C)(=O)=NC(=O)c1cnc(N)c(-c2cc3cc(NC(=O)Nc4ccc(Cl)c(C(F)(F)F)c4)ccc3s2)c1 = 69 nM
CS(C)(=O)=NC(=O)c1cnc(N)c(-c2cc3cc(NC(=O)Nc4cc(C(F)(F)F)ccc4F)ccc3s2)c1 = 167 nM
CS(C)(=O)=NC(=O)c1cncc(-c2cc3cc(NC(=O)Nc4cc(C(F)(F)F)ccc4F)ccc3s2)c1 = 551 nM

Now, please, on to the next molecule.
Ask | Sample CS(C)(=O)=NC(=O)c1cncc(-c2cc3cc(NC(=O)Nc4ccc(Cl)c(C(F)(F)F)c4)ccc3s2)c1 — what was its IC50?
Reply | 390 nM
